- tested on: T1, human MSLN-R2-his protein (human, UniProt Q13421 391-486)
- T1 construct: Region 2 of human mesothelin, made in HEK293E cells, His-tagged; also called human MSLN-R2 protein; hMSLN-R2-his; not shown: His tag
- T1 sequence (Q13421 other isoform, or with tags, fused parts or gaps): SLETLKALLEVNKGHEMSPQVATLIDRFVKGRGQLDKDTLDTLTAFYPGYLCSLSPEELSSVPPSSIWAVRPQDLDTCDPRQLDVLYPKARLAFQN
- assay overview: ELISA on coated MSLN-R2; antibody 100 nM
Assignment: determine reported OD450 for the given binders.
Kindly report the value followed by its unit.

Request the reported OD450 associated with S009-F8-27.1 (antibody, human IgG1, kappa, V domains shown) VH: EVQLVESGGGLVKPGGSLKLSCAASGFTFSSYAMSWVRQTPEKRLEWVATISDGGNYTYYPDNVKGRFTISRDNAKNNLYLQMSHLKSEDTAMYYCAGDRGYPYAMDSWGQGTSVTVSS VL: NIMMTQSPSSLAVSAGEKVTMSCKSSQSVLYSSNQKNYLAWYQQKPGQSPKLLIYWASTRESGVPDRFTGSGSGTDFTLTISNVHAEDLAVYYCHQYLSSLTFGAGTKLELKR
0.05 OD450

Please answer likewise for S009-F8-8.22 (antibody, human IgG1, kappa, V domains shown) VH: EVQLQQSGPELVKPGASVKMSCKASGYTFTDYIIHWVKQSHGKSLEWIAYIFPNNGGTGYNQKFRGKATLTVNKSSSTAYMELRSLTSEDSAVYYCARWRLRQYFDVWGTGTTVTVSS VL: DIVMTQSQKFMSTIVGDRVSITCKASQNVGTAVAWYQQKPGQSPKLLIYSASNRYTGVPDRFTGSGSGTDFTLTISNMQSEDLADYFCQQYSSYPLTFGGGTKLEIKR
0.09 OD450

Please answer likewise for S009-F8-32.3 (antibody, human IgG1, kappa, V domains shown) VH: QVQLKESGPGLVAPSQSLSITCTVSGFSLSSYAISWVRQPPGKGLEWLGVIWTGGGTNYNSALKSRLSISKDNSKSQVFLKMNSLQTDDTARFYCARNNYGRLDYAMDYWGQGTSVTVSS VL: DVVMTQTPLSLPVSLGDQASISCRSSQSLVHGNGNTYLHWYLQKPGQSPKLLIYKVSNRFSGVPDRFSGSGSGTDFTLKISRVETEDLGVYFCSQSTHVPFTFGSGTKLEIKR
0.07 OD450

Please answer likewise for S009-F8-4.5 (antibody, human IgG1, kappa, V domains shown) VH: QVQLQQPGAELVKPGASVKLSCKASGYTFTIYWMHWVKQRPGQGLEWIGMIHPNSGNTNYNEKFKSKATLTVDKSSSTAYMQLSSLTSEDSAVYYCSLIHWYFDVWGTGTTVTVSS VL: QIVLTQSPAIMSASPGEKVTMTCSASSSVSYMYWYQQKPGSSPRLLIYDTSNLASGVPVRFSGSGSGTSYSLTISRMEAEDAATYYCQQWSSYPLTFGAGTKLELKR
0.08 OD450

Please answer likewise for S009-F8-19.21 (antibody, human IgG1, kappa, V domains shown) VH: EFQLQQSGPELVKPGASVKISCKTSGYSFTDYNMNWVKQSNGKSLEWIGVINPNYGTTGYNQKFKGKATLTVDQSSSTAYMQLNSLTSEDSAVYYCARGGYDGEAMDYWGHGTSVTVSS VL: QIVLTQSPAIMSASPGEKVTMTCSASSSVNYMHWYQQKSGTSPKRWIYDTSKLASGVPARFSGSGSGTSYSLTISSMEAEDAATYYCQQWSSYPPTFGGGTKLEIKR
0.06 OD450

Please answer likewise for S009-F8-24.14 (antibody, human IgG1, kappa, V domains shown) VH: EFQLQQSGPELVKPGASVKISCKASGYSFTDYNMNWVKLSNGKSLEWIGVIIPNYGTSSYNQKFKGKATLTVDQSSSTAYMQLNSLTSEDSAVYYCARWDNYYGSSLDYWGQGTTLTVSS VL: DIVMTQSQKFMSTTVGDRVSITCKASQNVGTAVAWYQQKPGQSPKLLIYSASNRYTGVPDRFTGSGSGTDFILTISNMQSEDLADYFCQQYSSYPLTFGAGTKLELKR
0.05 OD450

Please answer likewise for S009-F8-18.9 (antibody, human IgG1, kappa, V domains shown) VH: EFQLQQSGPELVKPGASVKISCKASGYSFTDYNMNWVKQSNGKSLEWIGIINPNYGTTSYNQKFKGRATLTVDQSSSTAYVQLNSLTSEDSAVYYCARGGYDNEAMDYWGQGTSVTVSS VL: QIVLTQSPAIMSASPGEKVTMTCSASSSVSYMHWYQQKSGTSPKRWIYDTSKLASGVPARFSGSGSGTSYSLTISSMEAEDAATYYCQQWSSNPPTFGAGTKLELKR
0.08 OD450

Please answer likewise for S009-F8-33.12 (antibody, human IgG1, kappa, V domains shown) VH: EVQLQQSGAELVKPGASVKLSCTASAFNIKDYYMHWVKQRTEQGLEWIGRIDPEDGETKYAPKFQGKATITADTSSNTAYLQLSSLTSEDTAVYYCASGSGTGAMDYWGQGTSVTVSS VL: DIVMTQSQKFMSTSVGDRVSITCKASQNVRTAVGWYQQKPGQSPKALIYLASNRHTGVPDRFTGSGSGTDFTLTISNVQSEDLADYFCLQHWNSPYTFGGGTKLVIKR
0.05 OD450

Please answer likewise for S009-F8-31.22 (antibody, human IgG1, kappa, V domains shown) VH: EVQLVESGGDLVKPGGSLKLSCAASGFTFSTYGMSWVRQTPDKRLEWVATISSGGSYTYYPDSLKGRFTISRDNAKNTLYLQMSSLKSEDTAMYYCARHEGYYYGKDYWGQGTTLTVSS VL: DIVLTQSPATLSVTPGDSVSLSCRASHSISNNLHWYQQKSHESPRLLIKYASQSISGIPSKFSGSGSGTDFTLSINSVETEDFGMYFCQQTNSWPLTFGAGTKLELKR
0.08 OD450

Please answer likewise for S009-F8-9.16 (antibody, human IgG1, kappa, V domains shown) VH: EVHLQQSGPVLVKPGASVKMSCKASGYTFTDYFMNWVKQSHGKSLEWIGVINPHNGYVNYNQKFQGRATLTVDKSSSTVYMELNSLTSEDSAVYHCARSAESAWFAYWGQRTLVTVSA VL: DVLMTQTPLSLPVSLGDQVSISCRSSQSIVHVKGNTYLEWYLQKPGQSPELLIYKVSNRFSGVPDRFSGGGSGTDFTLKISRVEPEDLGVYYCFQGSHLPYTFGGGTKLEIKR
0.07 OD450
